Experimental Details: Biodistribution and metabolism of remdesivir in rats (UHPLC-MS/MS)
Type: in vivo, Sprague-Dawley rats
Stated Conditions: male, Sprague-Dawley, rat, in vivo, 100 mg/kg, GS-5734 100 mg/kg i.p., 6 h, average n=5, read-out: Concentration in spleen
Measured Parameter: concentration at 6 h (ng/g)
Output spec: scalar in ng/g, unitless text.

Ask: Fill in: concentration at 6 h of CCC(CC)COC(=O)[C@H](C)N[P@](=O)(OC[C@H]1O[C@@](C#N)(c2ccc3c(N)ncnn23)[C@H](O)[C@@H]1O)Oc1ccccc1 [Remdesivir, reference compound] is ___
Reply: 0.32

----------
Experimental Details: Biodistribution and metabolism of remdesivir in rats (UHPLC-MS/MS)
Assay type: in vivo, Sprague-Dawley rats
Stated Conditions: rat, GS-5734 100 mg/kg i.p., 2 h, average n=5
List of Concentration in PBMCs values.
Output spec: scalar in ng/10^6 cells, unitless text.

Solved entries (count: 3):
Smiles Structure	Measured Parameter	Measurement
N#C[C@@]1(c2ccc3c(N)ncnn23)O[C@H](COP(=O)(O)O)[C@@H](O)[C@H]1O	Concentration in PBMCs	0.44
N#C[C@@]1(c2ccc3c(N)ncnn23)O[C@H](COP(=O)(O)OP(=O)(O)O)[C@@H](O)[C@H]1O	Concentration in PBMCs	0.15
N#C[C@@]1(c2ccc3c(N)ncnn23)O[C@H](COP(=O)(O)OP(=O)(O)OP(=O)(O)O)[C@@H](O)[C@H]1O	Concentration in PBMCs	12.32

Shift focus to the following entry.
Ask: Fill in: Concentration in PBMCs of "C[C@H](NP(=O)(O)OC[C@H]1O[C@@](C#N)(c2ccc3c(N)ncnn23)[C@H](O)[C@@H]1O)C(=O)O" is ___
Reply: 0.55

----------
Experimental Details: Biodistribution and metabolism of remdesivir in rats (UHPLC-MS/MS)
Assay type: in vivo, Sprague-Dawley rats
Stated Conditions: male, Sprague-Dawley, rat, in vivo, 100 mg/kg, GS-5734 100 mg/kg i.p., 6 h, average n=5, read-out: Concentration in epididymis
Measured Parameter: concentration at 6 h (ng/g)
Output spec: scalar in ng/g, unitless text.

Ask: Fill in: concentration at 6 h of CCC(CC)COC(=O)[C@H](C)N[P@](=O)(OC[C@H]1O[C@@](C#N)(c2ccc3c(N)ncnn23)[C@H](O)[C@@H]1O)Oc1ccccc1 [Remdesivir, reference compound] is ___
Reply: 0.6

----------
Experimental Details: Biodistribution and metabolism of remdesivir in rats (UHPLC-MS/MS)
Type: in vivo, Sprague-Dawley rats
Stated Conditions: male, Sprague-Dawley, rat, in vivo, 100 mg/kg, GS-5734 100 mg/kg i.p., 2 h, average n=5, read-out: Concentration in kidney
Measured Parameter: concentration at 2 h
# output: number + unit

Ask: Fill in: concentration at 2 h of CCC(CC)COC(=O)[C@H](C)N[P@](=O)(OC[C@H]1O[C@@](C#N)(c2ccc3c(N)ncnn23)[C@H](O)[C@@H]1O)Oc1ccccc1 [Remdesivir, reference compound] is ___
Reply: 25.4 ng/g

----------
Experimental Details: Biodistribution and metabolism of remdesivir in rats (UHPLC-MS/MS)
Format: in vivo, Sprague-Dawley rats
Stated Conditions: rat, GS-5734 100 mg/kg i.p., 6 h, average n=5
List of Concentration in epididymis values.
Output spec: scalar in ng/g tissue, unitless text.

Smiles Structure	Measured Parameter	Measurement
C[C@H](NP(=O)(O)OC[C@H]1O[C@@](C#N)(c2ccc3c(N)ncnn23)[C@H](O)[C@@H]1O)C(=O)O	Concentration in epididymis	48.37

Ask: Fill in: Concentration in epididymis of "N#C[C@@]1(c2ccc3c(N)ncnn23)O[C@H](COP(=O)(O)OP(=O)(O)OP(=O)(O)O)[C@@H](O)[C@H]1O" is ___
Reply: 1225.27

Ask: Quick one: "N#C[C@@]1(c2ccc3c(N)ncnn23)O[C@H](COP(=O)(O)O)[C@@H](O)[C@H]1O"
Reply: 555.72

Ask: Quick one: "N#C[C@@]1(c2ccc3c(N)ncnn23)O[C@H](COP(=O)(O)OP(=O)(O)O)[C@@H](O)[C@H]1O"
Reply: 49.65

----------
Experimental Details: Cytotoxicity in Calu-3 cells (Cell Titer 96 Aqueous one Solution Cell Proliferation Assay)
Type: cell-based
Stated Conditions: human, Calu-3, 48 h
Measured Parameter: CC50 at 48 h

Ask: Fill in: CC50 at 48 h of CC(C)OC(=O)[C@H](C)N[P@](=O)(OC[C@@]1(N=[N+]=[N-])O[C@@H](n2ccc(N)nc2=O)[C@@H](F)[C@@H]1O)Oc1ccccc1 [CL-236] is ___
Reply: > 102 µM

----------
Experimental Details: Biodistribution and metabolism of remdesivir in rats (UHPLC-MS/MS)
Type: in vivo, Sprague-Dawley rats
Stated Conditions: male, Sprague-Dawley, rat, in vivo, 100 mg/kg, GS-5734 100 mg/kg i.p., 2 h, average n=5, read-out: Concentration in liver
Measured Parameter: concentration at 2 h (ng/g)
Output spec: scalar in ng/g, unitless text.

Ask: Fill in: concentration at 2 h of CCC(CC)COC(=O)[C@H](C)N[P@](=O)(OC[C@H]1O[C@@](C#N)(c2ccc3c(N)ncnn23)[C@H](O)[C@@H]1O)Oc1ccccc1 [Remdesivir, reference compound] is ___
Reply: 38.4

----------
Experimental Details: Biodistribution and metabolism of remdesivir in rats (UHPLC-MS/MS)
Type: in vivo, Sprague-Dawley rats
Stated Conditions: rat, GS-5734 100 mg/kg i.p., 2 h, average n=5
Measured Parameter: Concentration in lung (ng/g tissue)
Output spec: scalar in ng/g tissue, unitless text.

Solved entries (count: 3):
Smiles Structure	Unit Abbreviation	Concentration in lung
N#C[C@@]1(c2ccc3c(N)ncnn23)O[C@H](COP(=O)(O)OP(=O)(O)O)[C@@H](O)[C@H]1O	ng/g tissue	146.16
N#C[C@@]1(c2ccc3c(N)ncnn23)O[C@H](COP(=O)(O)O)[C@@H](O)[C@H]1O	ng/g tissue	3904.37
C[C@H](NP(=O)(O)OC[C@H]1O[C@@](C#N)(c2ccc3c(N)ncnn23)[C@H](O)[C@@H]1O)C(=O)O	ng/g tissue	82.87

Shift focus to the following entry.
Ask: Fill in: Concentration in lung of "N#C[C@@]1(c2ccc3c(N)ncnn23)O[C@H](COP(=O)(O)OP(=O)(O)OP(=O)(O)O)[C@@H](O)[C@H]1O" is ___
Reply: 3168.31

----------
Experimental Details: Biodistribution and metabolism of remdesivir in rats (UHPLC-MS/MS)
Type: in vivo, Sprague-Dawley rats
Stated Conditions: male, Sprague-Dawley, rat, in vivo, 100 mg/kg, GS-5734 100 mg/kg i.p., 6 h, average n=5, read-out: Concentration in heart
Measured Parameter: concentration at 6 h (ng/g)
Output spec: scalar in ng/g, unitless text.

Ask: Fill in: concentration at 6 h of CCC(CC)COC(=O)[C@H](C)N[P@](=O)(OC[C@H]1O[C@@](C#N)(c2ccc3c(N)ncnn23)[C@H](O)[C@@H]1O)Oc1ccccc1 [Remdesivir, reference compound] is ___
Reply: 28.6

----------
Experimental Details: Biodistribution and metabolism of remdesivir in rats (UHPLC-MS/MS)
Type: in vivo, Sprague-Dawley rats
Stated Conditions: male, Sprague-Dawley, rat, in vivo, 100 mg/kg, GS-5734 100 mg/kg i.p., 2 h, average n=5, read-out: Concentration in lung
Measured Parameter: concentration at 2 h (ng/g)
Output spec: scalar in ng/g, unitless text.

Ask: Fill in: concentration at 2 h of CCC(CC)COC(=O)[C@H](C)N[P@](=O)(OC[C@H]1O[C@@](C#N)(c2ccc3c(N)ncnn23)[C@H](O)[C@@H]1O)Oc1ccccc1 [Remdesivir, reference compound] is ___
Reply: 5.14

----------
List of Concentration in PBMCs values.
Experimental Details: Biodistribution and metabolism of remdesivir in rats (UHPLC-MS/MS)
Format: in vivo, Sprague-Dawley rats
Stated Conditions: rat, GS-5734 100 mg/kg i.p., 6 h, average n=5
From the text: 10 male Sprague-Dawley rats (250 ± 25 g) were purchased from Vital River Laboratories Co., LTD (Beijng, China). […] The standard curves of blank kidney tissue matrix, plasma matrix and PBMCs matrix were applied for quantitative analysis of GS-5734 and its metabolites. GS-5734, Nuc, Nuc-MP and Nuc-TP were quantified using their own standard curves, and the metabolites of GS-5734 (Ala-Nuc and Nuc-DP) were quantified using Nuc-MP standard curves. […]
Output spec: scalar in ng/10^6 cells, unitless text.

Solved entries (count: 3):
Molecule	Concentration in PBMCs [ng/10^6 cells]
N#C[C@@]1(c2ccc3c(N)ncnn23)O[C@H](COP(=O)(O)OP(=O)(O)O)[C@@H](O)[C@H]1O [Nuc-DP]	0.14
N#C[C@@]1(c2ccc3c(N)ncnn23)O[C@H](COP(=O)(O)O)[C@@H](O)[C@H]1O [Nuc-MP]	0.32
N#C[C@@]1(c2ccc3c(N)ncnn23)O[C@H](COP(=O)(O)OP(=O)(O)OP(=O)(O)O)[C@@H](O)[C@H]1O [Nuc-TP]	12.82

Shift focus to the following entry.
Ask: Fill in: Concentration in PBMCs of C[C@H](NP(=O)(O)OC[C@H]1O[C@@](C#N)(c2ccc3c(N)ncnn23)[C@H](O)[C@@H]1O)C(=O)O [Ala-Nuc] is ___
Reply: 0.50
